Experiment: NCI Yeast Anticancer Drug Screen. Data for the mec2-1 strain (AID 157)
Settings: S. cerevisiae mec2-1 strain, at 5.0 µM (retest, dose inferred, filed as 0.5), hits give high values
Compounds without any hit were thinned out: in the full panel of roughly 79,000, 15% have a hit.
property-measured: growth inhibition (%)
// units = %; emit number, no label

Below are worked cases with known answers.
{"compound": "O=C([CH-]C(=O)c1ccccc1)c1ccccc1.O=C([CH-]C(=O)c1ccccc1)c1ccccc1.[CH2-]CCC.[CH2-]CCC.[Sn+4]", "assay-value": 91}
{"compound": "CCC1CC[N-]CC1.CCC1CC[N-]CC1.N#C[S-].N#C[S-].[Cd]", "assay-value": 16}
{"compound": "O=C1C=C(N2CC2)C(=O)C=C1N1CC1", "assay-value": 90}
{"compound": "CC1=C(O)C(=O)C=C2C1=CC=C1[C@@]2(C)CC[C@@]2(C)[C@@H]3C[C@](C)(C(=O)O)CC[C@]3(C)CC[C@]12C", "assay-value": 74}
{"compound": "CC(C)CCC(=O)OC1CCC2(C)C(=CCC3C2CCC2(C)C(O)CCC32)C1 (centres undefined)", "assay-value": -2}
{"compound": "CC[PH+](CC)CC[S-].CC[PH+](CC)CC[S-].[Au+].[Au+]", "assay-value": 14}

Requested field: growth inhibition. Item: C[C@]12CC[C@H](O)C[C@@H]1CC[C@@H]1[C@@H]2CC[C@]2(C)C(=O)/C(=C/O)C[C@@H]12
-1

Requested field: growth inhibition. Item: O=C(CBr)OC1CCCCC1
41

Requested field: growth inhibition. Item: CC(=O)[O-].CC(=O)[O-].O=C([CH-]C(=O)c1ccccc1)c1ccccc1.[Nd+3].[OH3+]
27
